experiment_summary: melting temperature
recorded_conditions: DSF (SYPRO)
parameter_measured: Tm (°C)
Write the number in °C without appending the unit.

See these solved cases before continuing.
entry_sequence: QVQLQESGGGSVQAGGSLRLPCVASGYIYSPTKMGWFRQAPGKERELVSSITRDGRPYYSDSVKGRFTISQDNAKNTVYLQMNSLKPEDTAMYYCFADVRLSAVGGIKTYWDQGTQVTVSS
parameter_measured: Tm
measured: 58.6
--
entry_sequence: QVQLVESGGGLVQAGGSLRLSCAVSGLGAHRVGWFRRAPGKEREFVAAIGANGGNTNYLDSVKGRFTISRDNAKNTIYLQMNSLKPQDTAVYYCAARDIETAEYTYWGQGTQVTVSS
parameter_measured: Tm
measured: 72.8
--
entry_sequence: QVQLQESGGGSVQAGGSLKLSCAASGYIFSSCAMSWYRQAPGKERELVSSITSYGDAAYTDSAKGRFTISRDNAKNTLYLHLNNLKPEDTAVYFCAACPRNKYWGQGTQVTVSS
parameter_measured: Tm
measured: 68.4
--
entry_sequence: QVKLEESGGGLVQAGGSLRLSCAASERTFSRYPVAWFRQAPGAEREFVAVISSTGTSTYYADSVKGRFTISRDNAKVTVYLQMNNLKREDTAVYFCAVNSKRRRLQDPNEYDYWGQGTQVTVSSGSEQKLISEEDLNHHHHHH
parameter_measured: Tm
measured: 81.9
--
entry_sequence: QVQLQESGGGLVQPGGSLRLSCAASGFTISTTAMSWVRQAPGKGIEWVSTIFASGETTSYADFVQGRFITSRDNTKNTLYLQLNNLKTEDTAMYFCAAADDFGGLNNRYRGQGTQVTVSS
parameter_measured: Tm
measured: 60.7
--
entry_sequence: QVKLEESGGGLVQAGGSLRLSCAASERTFSRYPVAWFRQAPGAEREFVAVISSTGTSTYYADSVKGRFTISRDNAKVTVYLQMNNLKREDTAVYFCAVNSQRTRLQNPNEYDYWGQGTQVTVSSGSEQKLISEEDLNHHHHHH
parameter_measured: Tm
measured: 74.9
--
entry_sequence: QVKLEESGGGLVQAGGSLRLSCAASERTFSRYPVAWFRQAPGAEREFVAVISSTGRSTYYADSVKGRFTISRDNAKVTVYLQMNNLKREDTAVYFCAVNSQRMRLQDPNEYDYWGQGTQVTVSSGSEQKLISEEDLNHHHHHH
parameter_measured: Tm
measured: 77
--
entry_sequence: QVKLEESGGGLVQAGGSLRLSCAASERTFSRYPVAWFRQAPGAEREFVAVISSTGRSTYYADSVKGRFTISRDNAKVTVYLQMNNLKREDTAVYFCAVNSKRTRLQDPNEYDYWGQGTQVTVSSGSEQKLISEEDLNHHHHHH
parameter_measured: Tm
measured: 81.4

Would you kindly look at the next entry?
Using the record for QVKLEESGGGLVQAGGSLRLSCAASERTFSRYPVAWFRQAPGAEREFVAVISSTGTSKYYADSVKGRFTISRDNAKVTVYLQMNNLKREDTAVYFCAVNSQRTRLQDPNEYDYWGQGTQVTVSSGSEQKLISEEDLNHHHHHH , report its Tm.
76.9

====

experiment_summary: melting temperature
recorded_conditions: Circular dichroism
Classes (Tm): low interval = under 60 °C, middle interval = from 60 °C up to 70 °C, high interval = 70 °C and over

Please review the following examples before continuing.
entry_sequence: QVQLVESGGGLVQPGGSLRLSCAASGYTYISGWFRQAPGQGLEAVAAIRSSDGTTYYADSVKGRFTISRDNSKNTLYLQMNSLRAEDTAVYYCAATEVAGWPLDIGIYDYWGQGTLVTVSS
group: middle interval

entry_sequence: QLQLVESGGGLVQAGGSLRLSCAASGRTFSSATMGWFRQAPGKEREFVAAISWSGLSRYYADSVKGRFTISRDNAENTVYLQMNSLKTEDTAVYYCAADSWGCSGLGCYDARQYDVWGQGTQVTVSS
group: high interval

entry_sequence: QVQLVESGGGLVQPGGSLRLSCAASGDTYGSYWMGWFRQAPGQGLEAVAAINRGGGYTVYADSVKGRFTISRDNSKNTLYLQMNSLRAEDTAVYYCAASGVLGGLHEDWFNYWGQGTLVTVSSHHHHHH
group: high interval

entry_sequence: DVQLQESGGGLVQPGGSLRLSCAASGFLFSDTYMTWARQAPGKGLEWLGGISKDGSGTLYEDSVEGRFTISRDNAKNTLYLQMNSLKSEDTALYYCSTGALLPTRPQGQGTQVTVSS
group: low interval

entry_sequence: TRVDQTPRTATKETGESLTIICVLTDTSCVLHSTSWFRKNPGTTDWERMSIGGRYVESVNKGAKSFSLRIKDLTVADSATYYCKAQSHEYMEVCPYDWYDGAGTVLTVK
group: low interval

entry_sequence: ARVDOTPRTATKETGESLTINCVLTDTSYGLSSTYWYRKNPGSSNKEQISISGRYVESVNKRTKSFSLRIKDLTVADSATYICNAYIVRGVYGIIAKDVYGDGTALTVK
group: middle interval

entry_sequence: PRVEQTPRITTKETGESLTINCVLTGTSCNLWTATWFRKNPGTTDWERIRIGGRYVESVNKGAKSFSLRIKDLTVADSATYYCKVQFNLYCGEADWYDGAGTLLTVK
group: middle interval

entry_sequence: QVQLVESGGGLVQAGGSLRLSCAASGRTYTMGWFRQAPGKEREFVAAMRWSDTDYADSLKGRFTISRDNANNAMYLQMNSLGPEDTAVYYCAAGEAWLARSTHHYDYWGQGTQVTVSS
group: high interval

Band assignment needed for ARVEQTPRTATKETGESLTINCVLTGGSCSLYSTSWFRKNPGTTDWERISIGGRYVESVNKGAKSFSLRIKDLTVADSATYYCKAQSCMDSRTVVLDWYEGSGTVLTVK please.
high interval

Band assignment needed for EVQLVESGGGLVQPGGSLRLSCAASGSTFSSSSVGWYRQAPGKGLELVSAITSGGSTNTADSVKGRFTISRDNSKNTLYLQMNSLRAEDTAVYYCNVAGRNWVPISRYSPGPYWGQGTLVTVSS please.
middle interval

====

experiment_summary: melting temperature
recorded_conditions: nanoDSF
parameter_measured: Tm (°C)
Write the number in °C without appending the unit.

See these solved cases before continuing.
entry_sequence: KVQLVESGGGLVQAGGSLRLACTASGSAFSINTMGWYRRAPGKQRELVASITSSGSTTYADSVKGRFTISRDSAKNTVFLQMNSVKPEDTSVYYCNGEIQRTDYNFWGQGTQVTVSS
parameter_measured: Tm
measured: 63.5
--
entry_sequence: QVQLQESGGGSVQAGGSLKLSCDASTYTYGGKCMGWFRQAPGKEREFVAFIESDGRTSYADSVKGRFTISQDDAKNTVYLQMNSLKPEDTSMYYCKTAAGAFCGTRSYGFWGQGTQVTVSS
parameter_measured: Tm
measured: 60.8
--
entry_sequence: TGGGLVQPGGSLRLSCAASGSISSINAMGWYRQAPGKQRELVAAITIRGNTVYGDSVKGRFTVSRDNAKNTVYLQMNSLKPEDTAVYYCNAKSTPSLYAAGYGVDYWGEGTLV
parameter_measured: Tm
measured: 69.8
--
entry_sequence: QVQLQESGGGSVQAGGSLRLSCAASGWTYSTATMGWYRQAPGKERELVSSIFSDENTYYKDSVKGRFTISRDAAKNTVYLQMNSLKPEDTAMYYCYIRPTTSLANWRWGQGTQVTVSS
parameter_measured: Tm
measured: 63.9
--
entry_sequence: QVQLQESGGGSVQAGGSLKLSCAASGYIFSSCAMSWYRQAPGKERELVSSITSYGDAAYTDSAKGRFTISRDNAKNTLYLHLNNLKPEDTAVYFCAACPRNKYWGQGTQVTVSS
parameter_measured: Tm
measured: 63.6
--
entry_sequence: QVQLQESGGGSVQAGGSLRLSCAVSGYTYSSYSIGWFRQAPGKEREGVAAINSGGSTNYAGSVEGRFTISQDNAKNTVSLLMNSLKPEDTATYYCAVGAFFTLRPTLYNYKGQGTQVTVSS
parameter_measured: Tm
measured: 53.6

Would you kindly look at the next entry?
Using the record for TGGGWVQAGGSLRLSCAASGRAASGNAMAWFRQAPGKEREFVALISWSGGRPYYANSVKGRFAISRDNATNTVYLQMNRLKPEDTAVYYCAASPTIAILPTPYDYWGQGTQV , report its Tm.
75.3

====

experiment_summary: melting temperature
recorded_conditions: DSF (SYPRO)
Known Tm of a selection of sequences

See these solved cases before continuing.
entry_sequence: QVKLEESGGGLVQAGGSLRLSCAASERTFSRYPVAWFRQAPGAEREFVAVISSTGTSTYYADSVKGRFTISRDNAKVTVYLQMNNLKREDTAVYFCAVNSKRMRLQDPNEYDYWGQGTQVTVSSGSEQKLISEEDLNHHHHHH
Tm: 81.3 °C

entry_sequence: QVKLEESGGGLVQAGGSLRLSCAASERTFSRYPVAWFRQAPGAEREFVAVISSTGTSTYYADSVKGRFTISRDNAKVTVYLQMNNLKREDTAVYFCAVNSQRTRLWDPNEYDYWGQGTQVTVSSGSEQKLISEEDLNHHHHHH
Tm: 79.7 °C

entry_sequence: DVQLQASGGGLVQAGGSLRLSCAASGSTFSIKHHGWYRRAPGNQREWVAGINSENITNVAGAVKGRFTISRDNAKNTVYLQMNSLKVEDTAVYFCYAQDNDYRFLHRFWGQGTQVTVSLEPKTPKPQ
Tm: 52 °C

entry_sequence: GPHMAQVQLVESGGRLVQAGDSLRLSCAASGRTFSTSAMAWFRQAPGREREFVAAITWTVGNTILGDSVKGRFTISRDRAKNTVDLQMDNLEPEDTAVYYCSARSRGYVLSVLRSVDSYDYWGQGTQVTVS
Tm: 53.6 °C

Would you kindly look at the next entry?
Using the record for QVQLQESGGGSVQAGGSLRLSCVASEYDFNSYSSVSVGWFRQAPGKECVLVSRIGNDARTDYSDNVKGRFTISRDNAKRTAYLEMNSLKAEDTAVYYCAANQLSSAVVGTEYPCSKAAFAHWGQGTQVTVSS , report its Tm.
64.8 °C

Value source: the FLAb antibody collection
